- System: HL-60
- testSummary: NCI tumour cell line growth inhibition, 48 h
Activity calls are given as the source filed them. No stated cut-off is given here; in the data, active = GI50 up to about 1.1 µM and inactive = higher.
Outcome codes: 1 (yes) for active, 0 (no) for inactive

- molecularString: "C=CCOc1ccc(C(/N=N\\c2ccc(Cl)cc2)=N/NC(=O)c2ccccc2)cc1OC"
  category: "0 (no)"
- molecularString: "COc1cc(/C=C2/C[C@H]3[C@@H]4CC=C5C[C@@H](O)CC[C@]5(C)[C@H]4CC[C@]3(C)NC2=O)cc(OC)c1OC"
  category: "1 (yes)"
- molecularString: "CCOC(=O)Oc1ccc2[nH]c3c(C)cc(N)c(C)c3c2c1"
  category: "0 (no)"
- molecularString: "NC(=O)N/N=C\\c1ccccc1OCc1cccc(COc2ccccc2/C=N\\NC(N)=O)n1"
  category: "0 (no)"
